Below, each entry is listed with its recorded cell viability.
System: P12-Ichikawa
Assay: cell viability relative to DMSO control; higher = less cytotoxic
Conditions: HPLM + 10% dialyzed FBS; 48 h; 0.000781 µM

| structureSmiles | cell viability |
| --- | --- |
| CC/1=C/C(=O)N(O)/C(=C1)C2CCCCC2 | 115% |
| CC[C@H](CC#N)OC(=O)N[C@@H](C)c1cccc(NC(=O)Nc2ccc(-c3cnco3)c(OC)c2)c1 | 117% |
| O=C(NCC[S+](=O)([O-])c1ccc(C(F)(F)F)cn1)c1ccc(Cl)cc1 | 115% |
| Nc1ccccc1NC(=O)c1ccc(CNC(=O)OCc2cccnc2)cc1 | 111% |
| Cc1nc(NC(=O)N2CCC[C@H]2C(N)=O)sc1-c1ccnc(C(C)(C)C(F)(F)F)c1 | 96.4% |

###

System: P12-Ichikawa
Experiment: cell viability relative to DMSO control; higher = less cytotoxic
Settings: HPLM + 10% dialyzed FBS; 48 h; 46.1 µM
assayMetric: cell viability (%)

| molecule | targetUnderTest | assayMetric | unitSpec | recordedValue |
| --- | --- | --- | --- | --- |
| Cc1ccc(NC(=O)c2ccc(CN3CCN(C)CC3)cc2)cc1Nc1nc(-c2cccnc2)cs1 | P12-Ichikawa | cell viability | % | 41.3 |
| C[C@H](O)[C@H]1[C@@H]2[C@H](C)C(=C(\N2C1=O)C(O)=O)/S[C@@H]3CN[C@H](CN[S+](N)([O-])=O)C3 | P12-Ichikawa | cell viability | % | 104 |
| COc1nccc(-c2c(-c3ccc(F)cc3)ncn2C2CCNCC2)n1 | P12-Ichikawa | cell viability | % | 80.2 |
| CCCCCCCCCCCCCCCCCCCCCCO | P12-Ichikawa | cell viability | % | 140 |
| O=NN(CCCl)C(=O)NCCCl | P12-Ichikawa | cell viability | % | 95.2 |
| COC1=CC=CC2=C1C(=NC(=N2)C3=CC=CS3)NN4C(=O)\C=C(C)/C4=O | P12-Ichikawa | cell viability | % | 1.01 |
| ClC1=C(N\C2=N\CCN2)C3=NSN=C3C=C1 | P12-Ichikawa | cell viability | % | 124 |
| CCCCCOC(=O)NC\1=N\C(=O)N(\C=C1F)[C@@H]2O[C@H](C)[C@@H](O)[C@H]2O | P12-Ichikawa | cell viability | % | 86.7 |
| CC(C)(C)c1cc(NC(=O)Nc2ccc(-c3cn4c(n3)sc3cc(OCCN5CCOCC5)ccc34)cc2)no1 | P12-Ichikawa | cell viability | % | 91 |
| COc1cc2c(cc1OC)C1CC(=O)C(CC(C)C)CN1CC2 (centres undefined) | P12-Ichikawa | cell viability | % | 106 |
| CC\1=C/C=C\C=[N]1[Pt](N)(Cl)Cl | P12-Ichikawa | cell viability | % | 108 |
| Cc1nc(NC(=O)N2CCC[C@H]2C(N)=O)sc1-c1ccnc(C(C)(C)C(F)(F)F)c1 | P12-Ichikawa | cell viability | % | 83.2 |
| FC(F)(F)c1ccc(/C=C/c2nc(COc3ccc(CCCCn4ccnn4)cc3)co2)cc1 | P12-Ichikawa | cell viability | % | 81.6 |
| CC1(C)CCC[C@]2(C)[C@H]3CC(=O)O[C@]3(C)CC[C@@H]12 | P12-Ichikawa | cell viability | % | 99.1 |
| Oc1ccc2c3c1O[C@H]1c4[nH]c5c(c4C[C@@]4(O)[C@@H](C2)N(CC2CC2)CC[C@]314)C[C@@]1(O)[C@H]2Cc3ccc(O)c4c3[C@@]1(CCN2CC1CC1)[C@H]5O4 | P12-Ichikawa | cell viability | % | 121 |
| CCCCn1c(=O)n(Cc2ccccc2F)c(=O)c2nc(Cc3ccc(NC(C)=O)cc3)[nH]c21 | P12-Ichikawa | cell viability | % | 92.8 |
| CC(=O)N(C)c1cccc(-c2ccnc3c(C(=O)c4cccs4)cnn23)c1 | P12-Ichikawa | cell viability | % | 94.5 |
| CC1=NN(c2ccc(C)c(C)c2)C(=O)/C1=N/Nc1cccc(-c2cccc(C(=O)O)c2)c1O | P12-Ichikawa | cell viability | % | 68.1 |
| OC1=C(O)C2=C(\C=C/C(=O)O2)C=C1 | P12-Ichikawa | cell viability | % | 81.1 |

###

Tested on: SEM cells
Experiment: cell viability relative to DMSO control; higher = less cytotoxic
Conditions: RPMI 5 mM glucose + 10% FBS; 48 h; 0.569 µM
Below, each entry is listed with its recorded cell viability.

| compound | unitSpec | cell viability |
| --- | --- | --- |
| CC(C)[C@@H](N(CCCN)C(=O)C1=CC=C(C)C=C1)C/2=N/C3=CC(=CC=C3C(=O)N2CC4=CC=CC=C4)Cl | % | 12.3 |
| Cc1cc(OCCCc2c(C(=O)O)n(Cc3cccnc3)c3c(-c4c(COc5ccc(N6CCN([S+](C)(=O)[O-])CC6)cc5)nn(C)c4C)cccc23)cc(C)c1Cl | % | 112 |
| CN(CC#C)C/C1=C/C2=CC=CC=C2OC3=CC=CC=C13 | % | 36.8 |
| Cc1ccccc1N1C(=O)c2cc([S+](N)(=O)[O-])c(Cl)cc2NC1C (centres undefined) | % | 22.5 |

###

Tested on: SEM cells
Assay: AUC of viability dose-response curve (% viability x log10 dose units); higher = less sensitive
Details: RPMI 5 mM glucose + 10% FBS; 48 h
Label TRUE when AUC of viability dose-response curve is strictly below 400; otherwise label FALSE.

| molecule | group |
| --- | --- |
| OC[C@H]1O[C@@H](O[C@@H]2[C@@H](CO)O[C@](O)(CO)[C@H]2O)[C@H](O)[C@@H](O)[C@H]1O | FALSE |
| COC1=NC(=NC(=C1N\C2=N\CCN2)Cl)C | TRUE |
| NC(=O)c1cnc(N[C@@H]2CCCC[C@@H]2N)nc1Nc1cccc(-n2nccn2)c1 | FALSE |
| O=C1c2c(O)cc(O)cc2O[C@H](c2ccc(O)c(O)c2)[C@H]1O | FALSE |
| CC[C@H](CC#N)OC(=O)N[C@@H](C)c1cccc(NC(=O)Nc2ccc(-c3cnco3)c(OC)c2)c1 | TRUE |
| CC1(C)CCC[C@]2(C)[C@H]3CC(=O)O[C@]3(C)CC[C@@H]12 | FALSE |
| CNC1CCC(N(Cc2cccc(-c3ccncc3)c2)C(=O)c2sc3ccccc3c2Cl)CC1 (configuration not stated) | TRUE |
| Nc1ccccc1NC(=O)c1ccc(CNC(=O)OCc2cccnc2)cc1 | TRUE |
| C[C@]12C[C@H](O)[C@H]3[C@@H](CC\C4=C\C(=O)\C=C/[C@]34C)[C@@H]1CC[C@]2(O)C(=O)CO | TRUE |
| COc1cnc(N[S+](=O)([O-])c2ccc(N)cc2)nc1 | FALSE |
| CC[C@H](CC[C@@H](C)[C@H]1CC[C@H]2[C@@H]3C\C=C/4C[C@@H](O)CC[C@]4(C)[C@H]3CC[C@]12C)C(C)C | FALSE |
| CCc1cc(Nc2nccc(-c3c(-c4ccc(OC)c(C(=O)Nc5c(F)cccc5F)c4)nc4ccccn34)n2)c(OC)cc1N1CCC(N2CCN([S+](C)(=O)[O-])CC2)CC1 | FALSE |
| c1cncc(CN2CCC(n3ncc4c(N5CCOCC5)nc(-c5ccc6[nH]ccc6c5)nc43)CC2)c1 | TRUE |
| OC1=CC=C(C=C1)\C2=C\OC3=C(C=CC(=C3)O)C2=O | FALSE |
| COC1=CC=CC=C1C2=CC=CC(=C2)C/3=C(O)/C4=CC(=C(Cl)C=C4NC3=O)C#N | TRUE |
| NC1(C(=O)N[C@@H](CCO)c2ccc(Cl)cc2)CCN(c2ncnc3[nH]ccc23)CC1 | TRUE |
| COc1ccc(C[C@@H](C)[C@@H](C)Cc2ccc(OC)c(OC)c2)cc1OC | TRUE |
| C[C@H]1[C@H](NC(=O)/C(=N/OC(C)(C)C(=O)O)c2csc(N)n2)C(=O)N1[S+](=O)([O-])O | FALSE |
| Cn1cc(CNCC2CCN(c3ncc(C(=O)NO)cn3)CC2)c2ccccc21 | TRUE |
| CCCCn1c(=O)n(Cc2ccccc2F)c(=O)c2nc(Cc3ccc(NC(C)=O)cc3)[nH]c21 | FALSE |
| COc1c(C)cnc(Cn2cnc3c(Cl)nc(N)nc32)c1C | TRUE |
| CC\1=C/C=C\C=[N]1[Pt](N)(Cl)Cl | FALSE |
| CC/1=C/C(=O)N(O)/C(=C1)C2CCCCC2 | FALSE |
| O=NN(CCCl)C(=O)NCCCl | FALSE |

###

Test system: SEM cells
Experiment: cell viability relative to DMSO control; higher = less cytotoxic
Conditions: RPMI 5 mM glucose + 10% dialyzed FBS; 48 h; 0.000781 µM

| molecule | targetUnderTest | cell viability (%) |
| --- | --- | --- |
| COc1nccc(-c2c(-c3ccc(F)cc3)ncn2C2CCNCC2)n1 | SEM cells | 69.4 |
| OC[C@H]1O[C@@H](O[C@@H]2[C@@H](CO)O[C@](O)(CO)[C@H]2O)[C@H](O)[C@@H](O)[C@H]1O | SEM cells | 95.6 |
| COc1cc2nc(N(C)CCCNC(=O)C3CCCO3)nc(N)c2cc1OC (configuration not stated) | SEM cells | 69.7 |
| CCCCCOC(=O)NC\1=N\C(=O)N(\C=C1F)[C@@H]2O[C@H](C)[C@@H](O)[C@H]2O | SEM cells | 96.6 |
| Cc1cn2c(-c3cn[nH]c3)cnc2c(Nc2ccc(C(=O)N3CCNCC3)cc2F)n1 | SEM cells | 107 |
| CC(=O)O[C@H]1C(=O)[C@]2(C)[C@@H](O)C[C@H]3OC[C@@]3(OC(C)=O)C2[C@H](OC(=O)C4=CC=CC=C4)[C@]5(O)C[C@H](OC(=O)[C@H](O)[C@@H](NC(=O)C6=CC=CC=C6)C7=CC=CC=C7)\C(=C1/C5(C)C)C (some centres not stated) | SEM cells | 81.3 |
| CC(C)c1cnn2c(NCc3ccccc3)cc(N[C@@H](CO)[C@H](O)CO)nc12 | SEM cells | 121 |
| C[C@H]1[C@H](NC(=O)/C(=N/OC(C)(C)C(=O)O)c2csc(N)n2)C(=O)N1[S+](=O)([O-])O | SEM cells | 106 |
| CC(=O)N(C)c1cccc(-c2ccnc3c(C(=O)c4cccs4)cnn23)c1 | SEM cells | 104 |
| COC1=NC(=NC(=C1N\C2=N\CCN2)Cl)C | SEM cells | 74.6 |
| O=c1c(-c2ccc(O)cc2)coc2cc(O[C@@H]3O[C@H](CO)[C@@H](O)[C@H](O)[C@H]3O)ccc12 | SEM cells | 124 |
| C=CC(=O)Nc1cccc(Oc2nc(Nc3ccc(N4CCN(C)CC4)cc3)ncc2Cl)c1 | SEM cells | 108 |
| [NH2][Pt]1([NH2])[O]CC(=O)[O]1 | SEM cells | 75.6 |
| CN\1C(=O)/C(=C(\N=C1N2CCCC[S+]2([O-])=O)C(=O)NCC3=CC=C(F)C=C3)O | SEM cells | 104 |
| CN1[C@@H]2CC(OC(=O)[C@@H](CO)c3ccccc3)C[C@H]1[C@H]1O[C@H]12 (some centres not stated) | SEM cells | 90.2 |
| CC(C)OC(=O)OCOP(=O)(CO[C@H](C)Cn1cnc2c(N)ncnc21)OCOC(=O)OC(C)C.O=C(O)C=CC(=O)O | SEM cells | 77.3 |
| CCCc1nc(C(C)(C)O)c(C(=O)O)n1Cc1ccc(-c2ccccc2-c2nn[nH]n2)cc1 | SEM cells | 96 |

Just for reference, the supplement of paper PMC11451515 is where these values come from.
